A short record of log10 of MIC observed with Aureobasidium pullulans follows.
Measurement Label: log10 of MIC (log10 of the value in µg/mL)

COC(=O)N(CC#CI)N=Cc1ccc(C)cc1 [Compound 4]
0.90
O=C(c1ccccc1)N(CC#CI)N=Cc1cccc([N+](=O)[O-])c1 [Compound 12]
2.00
COC(=O)N(CC#CBr)N=Cc1ccc(F)cc1 [Compound 7]
1.49
O=CN(CC#CBr)N=Cc1ccc(Cl)cc1 [Compound 2]
1.80
COC(=O)N(CC#CBr)N=Cc1ccc(Cl)cc1 [Compound 1]
1.80
O=C(c1ccccc1)N(CC#CI)N=Cc1ccccc1 [Compound 6]
0.48

* * *

Measured inhibition of growth at 50 ppm of individual entries
Tested on: Pythium ultimum
Assay: In-vitro plant fungicide test, PYU
Type: cell-based
Conditions: Globisporangium ultimum, rate 50 PPM, read-out: % Control
Measurement Label: inhibition of growth at 50 ppm (%)

COC(=O)N(CC#CI)N=Cc1ccc(F)cc1 [Compound 10]
100
COC(=O)N(CC#CI)N=Cc1ccccc1 [Compound 3]
100
COC(=O)N(CC#CI)N=Cc1ccc([N+](=O)[O-])o1 [Compound 8]
100
COC(=O)N(CC#CI)N=Cc1ccc(C#N)cc1 [Compound 9]
100
COC(=O)N(CC#CI)N=Cc1ccc(Cl)c(Cl)c1 [Compound 11]
0
COC(=O)N(CC#CBr)N=Cc1ccc(F)cc1 [Compound 7]
100
O=C(c1ccccc1)N(CC#CI)N=Cc1cccc([N+](=O)[O-])c1 [Compound 12]
0

* * *

Test system: Aspergillus niger
Measurement Label: MIC

COC(=O)N(CC#CI)N=Cc1ccc([N+](=O)[O-])o1
< 4 mg/L
COC(=O)N(CC#CI)N=Cc1ccc(Cl)cc1
< 4 mg/L
O=C(c1ccccc1)N(CC#CI)N=Cc1cccc([N+](=O)[O-])c1
> 100 mg/L
O=CN(CC#CBr)N=Cc1ccc(Cl)cc1
> 500 mg/L
CCOC(=O)N(CC#CBr)N=Cc1ccc(Cl)c(Cl)c1
> 100 mg/L
COC(=O)N(CC#CBr)N=Cc1ccc(Cl)cc1
> 500 mg/L
COC(=O)N(CC#CI)N=Cc1ccc(F)cc1
< 4 mg/L
COC(=O)N(CC#CI)N=Cc1ccccc1
< 4 mg/L
O=C(c1ccccc1)N(CC#CI)N=Cc1ccccc1
6 mg/L
COC(=O)N(CC#CI)N=Cc1ccc(C)cc1
< 4 mg/L
COC(=O)N(CC#CBr)N=Cc1cc(Cl)cc(Cl)c1
> 100 mg/L
COC(=O)N(CC#CI)N=Cc1cc(Cl)cc(Cl)c1
> 100 mg/L
COC(=O)N(CC#CI)N=Cc1ccc(Cl)c(Cl)c1
< 4 mg/L
COC(=O)N(CC#CI)N=Cc1ccc(C#N)cc1
> 250 mg/L
CCOC(=O)N(CC#CI)N=Cc1ccc(Cl)c(Cl)c1
100 mg/L
COC(=O)N(CC#CBr)N=Cc1ccc(F)cc1
31 mg/L

* * *

Tested on: Cochliobolus sativus
Test: In-vitro plant fungicide test, HEL
Format: cell-based
Details: Bipolaris sorokiniana, rate 25 PPM, read-out: % Control
Measurement Label: inhibition of growth at 25 ppm (%)

COC(=O)N(CC#CI)N=Cc1cc(Cl)cc(Cl)c1
50
COC(=O)N(CC#CBr)N=Cc1cc(Cl)cc(Cl)c1
0
O=C(c1ccccc1)N(CC#CI)N=Cc1ccccc1
0
CCOC(=O)N(CC#CBr)N=Cc1ccc(Cl)c(Cl)c1
0
COC(=O)N(CC#CBr)N=Cc1ccc(Cl)cc1
0
COC(=O)N(CC#CI)N=Cc1ccc(Cl)cc1
100
CCOC(=O)N(CC#CI)N=Cc1ccc(Cl)c(Cl)c1
50
COC(=O)N(CC#CBr)N=Cc1ccc(F)cc1
0
O=CN(CC#CBr)N=Cc1ccc(Cl)cc1
0
COC(=O)N(CC#CI)N=Cc1ccccc1
0
